Where do the numbers come from? From patent US7683176B2.

Reported IC50 by item:
biological target: CCR9 (Homo sapiens); construct: chemokine expressing cells (such as THP-1 cells for CCR2 assay or MOLT-4 cells for CCR9 assay); test: CCR9 activity in one of the chemotaxis, binding or calcium mobilization assays; settings: binding or calcium mobilization assays (MOLT-4 cells, TECK)
Sequence (P51686 whole entry): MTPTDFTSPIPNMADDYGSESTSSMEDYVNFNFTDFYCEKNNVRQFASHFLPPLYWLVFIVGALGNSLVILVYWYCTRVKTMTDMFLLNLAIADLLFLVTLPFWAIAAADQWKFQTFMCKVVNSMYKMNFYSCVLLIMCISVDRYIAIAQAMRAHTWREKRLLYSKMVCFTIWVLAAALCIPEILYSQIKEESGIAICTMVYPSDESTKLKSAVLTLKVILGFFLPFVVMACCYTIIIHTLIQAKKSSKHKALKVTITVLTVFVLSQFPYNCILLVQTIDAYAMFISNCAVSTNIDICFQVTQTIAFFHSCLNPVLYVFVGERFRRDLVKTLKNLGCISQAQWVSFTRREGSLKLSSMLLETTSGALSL
Property Name: IC50

[[record]]
compound = "Cc1cnc(-c2nncn2C2CCN(C(=O)OC(C)(C)C)C2)c(NS(=O)(=O)c2ccc(C(C)(C)C)cc2)c1 (stereo not shown)"
property_name = "IC50"
experimental_result = "< 1000 nM"

[[record]]
compound = "CC(C)(C)c1ccc(S(=O)(=O)Nc2cc(Cl)cnc2-c2nncn2[C@H]2CCNC2)cc1"
property_name = "IC50"
experimental_result = "< 1000 nM"

[[record]]
compound = "CCn1cnnc1-c1ncc(Cl)cc1NS(=O)(=O)c1ccc(C(C)(C)C)cc1"
property_name = "IC50"
experimental_result = "< 1000 nM"

[[record]]
compound = "Cn1c(-c2ccno2)nnc1-c1ncc(Cl)cc1NS(=O)(=O)c1ccc(C(C)(C)C)cc1"
property_name = "IC50"
experimental_result = "< 1000 nM"

[[record]]
compound = "Cn1c(-c2cccnc2)nnc1-c1ncc(Cl)cc1NS(=O)(=O)c1ccc(C(C)(C)C)cc1"
property_name = "IC50"
experimental_result = "< 1000 nM"

[[record]]
compound = "Cn1c(-c2ccncc2)nnc1-c1ncc(Cl)cc1NS(=O)(=O)c1ccc(C(C)(C)C)cc1"
property_name = "IC50"
experimental_result = "< 1000 nM"

[[record]]
compound = "CC(C)(C)c1ccc(S(=O)(=O)Nc2cc(Cl)cnc2-c2nnc3n2CCNC3)cc1"
property_name = "IC50"
experimental_result = "< 1000 nM"

[[record]]
compound = "CC(C)(C)c1ccc(S(=O)(=O)Nc2cc(Cl)cnc2-c2nncn2-c2ccccc2)cc1"
property_name = "IC50"
experimental_result = "< 1000 nM"

[[record]]
compound = "CCn1c(C)nnc1-c1ncc(Cl)cc1NS(=O)(=O)c1ccc(C(C)(C)C)cc1"
property_name = "IC50"
experimental_result = "< 1000 nM"

[[record]]
compound = "Cc1nnc(-c2ncc(Cl)cc2NS(=O)(=O)c2ccc(C(C)(C)C)cc2)n1C"
property_name = "IC50"
experimental_result = "< 1000 nM"

[[record]]
compound = "CC(C)(C)c1ccc(S(=O)(=O)Nc2cc(Cl)cnc2-c2nnc3n2CCOC3)cc1"
property_name = "IC50"
experimental_result = "< 1000 nM"

[[record]]
compound = "Cn1c(-c2ncc(Cl)cc2NS(=O)(=O)c2ccc(C(C)(C)C)cc2)nnc1C1CCCN1 (stereo not shown)"
property_name = "IC50"
experimental_result = "< 1000 nM"

[[record]]
compound = "Cc1nnc(-c2ncc(Cl)cc2NS(=O)(=O)c2ccc(C(C)(C)C)cc2)n1C(C)C"
property_name = "IC50"
experimental_result = "< 1000 nM"

[[record]]
compound = "CCn1c(COC)nnc1-c1ncc(Cl)cc1NS(=O)(=O)c1ccc(C(C)(C)C)cc1"
property_name = "IC50"
experimental_result = "< 1000 nM"

[[record]]
compound = "Cc1nnc(-c2ncc(Cl)cc2NS(=O)(=O)c2ccc(C(C)(C)C)cc2)n1C1CC1"
property_name = "IC50"
experimental_result = "< 1000 nM"

[[record]]
compound = "COCc1nnc(-c2ncc(Cl)cc2NS(=O)(=O)c2ccc(C(C)(C)C)cc2)n1C1CCOCC1"
property_name = "IC50"
experimental_result = "< 1000 nM"

[[record]]
compound = "Cn1c(-c2ncc(Cl)cc2NS(=O)(=O)c2ccc(C(C)(C)C)cc2)nnc1C1CCNCC1"
property_name = "IC50"
experimental_result = "< 1000 nM"

[[record]]
compound = "CC(C)n1c(N)nnc1-c1ncc(Cl)cc1NS(=O)(=O)c1ccc(C(C)(C)C)cc1"
property_name = "IC50"
experimental_result = "< 1000 nM"

[[record]]
compound = "COCc1nnc(-c2ncc(Cl)cc2NS(=O)(=O)c2ccc(C(C)(C)C)cc2)n1C(C)C"
property_name = "IC50"
experimental_result = "< 1000 nM"

[[record]]
compound = "COCc1nnc(-c2ncc(Cl)cc2NS(=O)(=O)c2ccc(C(C)(C)C)cc2)n1C"
property_name = "IC50"
experimental_result = "< 1000 nM"

[[record]]
compound = "CC(=O)Nc1nnc(-c2ncc(Cl)cc2NS(=O)(=O)c2ccc(C(C)(C)C)cc2)n1C(C)C"
property_name = "IC50"
experimental_result = "< 1000 nM"

[[record]]
compound = "CC(C)(C)c1ccc(S(=O)(=O)Nc2cc(Cl)cnc2-c2nncn2-c2ccccc2F)cc1"
property_name = "IC50"
experimental_result = "< 1000 nM"

